# studyTarget: human P2X3 receptor (Homo sapiens (Human))
# Sequence (P56373 whole entry): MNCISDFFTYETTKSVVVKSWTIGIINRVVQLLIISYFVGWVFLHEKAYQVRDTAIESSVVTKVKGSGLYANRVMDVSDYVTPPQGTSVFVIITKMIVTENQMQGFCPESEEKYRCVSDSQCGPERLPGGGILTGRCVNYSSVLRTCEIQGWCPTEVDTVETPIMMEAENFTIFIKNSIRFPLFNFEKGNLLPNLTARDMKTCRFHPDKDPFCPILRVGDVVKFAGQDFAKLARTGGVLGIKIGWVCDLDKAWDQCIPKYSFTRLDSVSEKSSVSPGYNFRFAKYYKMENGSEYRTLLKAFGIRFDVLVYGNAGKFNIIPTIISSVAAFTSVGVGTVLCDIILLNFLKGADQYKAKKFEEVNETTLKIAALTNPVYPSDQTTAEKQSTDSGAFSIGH
# assayComment: P2X3 receptor inhibition, ATP-evoked Fluo-3 calcium fluorescence (FDSS 3000)
# settings: C6BU-1 cell transfected with human P2X3 receptor gene; ATP-evoked Fluo-3 fluorescence
# Protocol: Stably expressing cell line (C6BU-1 cell transfected with human P2X3 receptor gene (GenBank accession number Y07683)) was used. […] Five minutes after, 40 nM ATP solution (50 μL) prepared by dilution with the dilution buffer was dispensed through the built-in automatic dispenser, and the measurement of fluorescence intensity was continued for 3 min. […] FDSS software (Hamamatsu Photonics K.K.) was used for calculation of the specific maximum fluorescence intensity. […]
Property: IC50; scope: individual compounds

compound	IC50 [nM]
COC(=O)COc1ccccc1C1c2c(C(C)(C)C)n[nH]c2C(=O)N1c1ccc(-c2ccon2)cc1 (stereo not drawn)	14
C[S+]([O-])CCOc1ccccc1C1c2c(C(C)(C)C)n[nH]c2C(=O)N1c1ccc(-c2ccsc2)cc1 (stereo not drawn)	12
CC(C)C(=O)C1=C(O)C(=O)N(c2ccc(-c3ccsc3)cc2)C1c1ccccc1OCC1OCCO1 (stereo not drawn)	5
CC(C)CC(=O)C1=C(O)C(=O)N(c2ccc(SC(F)(F)F)cc2)C1c1ccccc1OC(C)C (stereo not drawn)	128
CC(C)(C)C(=O)C1=C(O)C(=O)N(c2ccc(-c3ccon3)cc2)C1c1ccccc1OCC(N)=O (stereo not drawn)	365
CC(C)(C)c1n[nH]c2c1C(c1ccccc1O)N(c1ccc(-c3ccon3)cc1)C2=O (stereo not drawn)	114
